System: EKVX NSCLC
run description: NCI tumour cell line growth inhibition, 48 h
// reported TGI for each item listed
Please respond with the number in µM and leave the unit unwritten.

Here's what some known entries look like.
molecule	property	value units	reported value
C=CCCCCCCCC(O)C1C[C@H](O)C(CCCCC)O1 (stereo partly specified)	TGI	µM	36.7
CN(C)c1nc(N)nc(CCl)n1	TGI	µM	41.6

Moving on to the next molecule.
Consider `CCCCCCN1C(=O)CC(=O)N(CCCCCC)S1(=O)=O` . Its measured TGI is 41

----------
System: M14 melanoma
run description: NCI tumour cell line growth inhibition, 48 h
property: TGI

compound	assayed target	TGI
CC(=O)OCc1cnc2c3c(nc4ccccc4c13)C(=O)c1cccnc1-2	M14 melanoma	0.125 µM
c1ccc(Cc2cc(-c3ccccc3)n[nH]2)cc1	M14 melanoma	80.1 µM
CC(=O)N1C(Nc2ccccc2)CCN1c1ccccc1 (stereo unspecified)	M14 melanoma	> 10 µM
O=C(CC(=O)N1N=C(N2c3ccccc3Sc3ccccc32)CC1c1ccccc1)Nc1ccccc1Cl (stereo unspecified)	M14 melanoma	> 100 µM
Brc1ccc(-c2[nH]c3ccccc3c2N=Nc2ccccc2)cc1	M14 melanoma	33.5 µM
CC(OC(C)(C)C)[C@H](NC(=O)OCc1ccccc1)C(=O)NC(OCc1ccccc1)[C@H]1COC(C)(C)O1 (stereo partly specified)	M14 melanoma	> 10 µM

Documented TGI of `CN(C)c1nc(N)nc(CCl)n1` : > 100 µM

Measured TGI of `CSc1nc(N)cc(Oc2ccc(-c3nc(Nc4cccc(C(F)(F)F)c4)n[nH]3)cc2)n1` : 3.85 µM

Entry `CCCCCCN1C(=O)CC(=O)N(CCCCCC)S1(=O)=O` — recorded TGI = > 100 µM

For CC(C)C1(Cl)CCC2C3(C)CCCC(C)(C(=O)O)C3CC(Cl)C2(Cl)C1Cl (stereo unspecified) the compound record lists TGI as > 100 µM

Recorded TGI (compound `CC(=O)c1c2c(cc3c1CC1(Cc4cc5c(cc4C1)CCCC5)C3)CCCC2` ): > 100 µM

Form field TGI, entry `OC/C=C/[C@H](OCc1ccccc1)[C@H](/C=C/CO)OCc1ccccc1` : > 100 µM

Field TGI (entry `COc1ccc(C2C(C#N)=C(O)NC(O)=C2C#N)cc1OC` ) reads > 100 µM

Looking up `Cc1ccc(NC(=O)c2cc(S(=O)(=O)Nc3n[nH]c(=O)n3-c3ccccc3)c(S)cc2Cl)cc1` , I found its TGI recorded as > 100 µM

// TGI value for `CCC(=O)c1c(C(F)(F)F)n([O-])c2cc(N3CCNCC3)c(F)cc2[n+]1=O` : 14.2 µM

Please fill in: TGI reported for `Cc1ccc(S(=O)(=O)Nn2c(S)c(C#N)c(-c3ccc(N(C)C)cc3)c(C#N)c2=O)cc1` = > 100 µM

What the record says about CC(C)/C=N\N1C(N)=C(C#N)C(C#N)(C#N)C1C(C)C (stereo unspecified) : TGI is > 100 µM

Lab book: TGI of `N#Cc1c(-c2ccc(Cl)cc2)cc(-c2ccc(Nc3ccnc4cc(Cl)ccc34)cc2)nc1N` noted as > 100 µM

So for `O=C1C=C(c2[nH]c3ccccc3c2C2=CC(=O)c3ccccc3C2=O)C(=O)c2ccccc21` , the logged TGI turned out to be > 100 µM

TGI reported for this compound `Clc1ccc(CNc2ccc3nc(CCC4CCCCC4)[nH]c3c2)cc1` : 3.95 µM

// COc1ccc(C2C(C#N)=C(N)Oc3c2sc2c(F)cccc32)cc1 (stereo unspecified) : TGI value = 4.54 µM
